- Tested on: LG0703-F948-PDC complex spheroid viability;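 note: spheroids exposed to agents for 7 days; 100% = DMSO vehicle wells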
- Assay name: Anticancer human tumor LG0703-F948-PDC patient-derived lung adenocarcinoma cell line growth inhibition [RAS]
- Condition notes: compound 0.0316 µM; hits give low values
Parameter measured: viability, T/C

Example results:
Compound	Parameter measured	Reported measurement
C=CC(=O)Nc1cc(Nc2nccc(-c3cn(C)c4ccccc34)n2)c(OC)cc1N(C)CCN(C)C	viability, T/C	21.9% [middle of 4 runs]
CC(=O)OC12COC1CC(O)C1(C)C(=O)C(O)C3=C(C)C(OC(=O)C(O)C(NC(=O)OC(C)(C)C)c4ccccc4)CC(O)(C(OC(=O)c4ccccc4)C21)C3(C)C (stereo not drawn)	viability, T/C	37.1% [middle of 4 runs]

Look at this compound and give its reported viability, T/C. CC(C)n1nc(-c2ccc3oc(N)nc3c2)c2c(N)ncnc21
23.2% [middle of 4 runs]

FYI, the data here is from PubChem BioAssay AID2060890.
